Molecular target: T1, human ROR2 (receptor tyrosine kinase-like orphan receptor 2) (human, UniProt Q01974 34-403, limits assumed)
T1 construct: Antigen of the ELISA, SPR and pH titration assays; also called hROR2
T1 sequence (Q01974 34-403 limits assumed): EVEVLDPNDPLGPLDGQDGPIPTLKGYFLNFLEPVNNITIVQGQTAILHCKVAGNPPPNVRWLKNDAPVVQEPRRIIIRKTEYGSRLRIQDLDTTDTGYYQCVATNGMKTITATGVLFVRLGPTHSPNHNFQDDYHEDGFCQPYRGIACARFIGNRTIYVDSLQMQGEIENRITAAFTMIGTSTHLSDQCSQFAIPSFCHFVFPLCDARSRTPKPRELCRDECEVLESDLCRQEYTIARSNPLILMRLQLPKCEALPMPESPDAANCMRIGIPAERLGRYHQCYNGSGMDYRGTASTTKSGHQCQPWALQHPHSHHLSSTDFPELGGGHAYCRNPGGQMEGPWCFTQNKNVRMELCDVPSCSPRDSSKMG
Test: affinity ELISA on human ROR2, pH 6.0
Parameters: unit not given here
Listed below: Affinity ELISA, pH 6.0 values for each entry.

| Binder | Affinity ELISA, pH 6.0 |
| --- | --- |
| HC-A097T (antibody, V domains shown, CPE single point mutant of parent VH 48.6-HC-WT) VH: EVQLQQSGPELVKPGASVKISCKTSGYTFTEYTMHWMKQSHRKSLEWIGGINTNNGGTGYNQKFKGKATLTVDKSSSTAYMELRSLTSEDSAVYFCTRGSLYSYGNSYFDYWGQGTLVTVSS VL: QIVLTQSPAIMSASPGEKVTITCSATSSVSYMHWFQQKPGTSPKLWIYGTSNLASGVPARFSGSGSGTSYSLTISRMEAEDAATYYCQQRSSYPFTFGQGTKVEIK | 1.83 |
| HC-N052V (antibody, V domains shown, CPE single point mutant of parent VH 48.6-HC-WT) VH: EVQLQQSGPELVKPGASVKISCKTSGYTFTEYTMHWMKQSHRKSLEWIGGIVTNNGGTGYNQKFKGKATLTVDKSSSTAYMELRSLTSEDSAVYFCARGSLYSYGNSYFDYWGQGTLVTVSS VL: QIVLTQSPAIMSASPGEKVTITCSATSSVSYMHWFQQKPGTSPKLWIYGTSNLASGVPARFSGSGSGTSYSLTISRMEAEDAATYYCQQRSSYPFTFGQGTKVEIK | 0.87 |

Origin of the recorded values: patent US20250161472A1
